Values were extracted from PubChem BioAssay AID743395.

List of AC35 values.
# Test system: HepG2 viability, CellTiter-Glo ATP luminescence, 72 h
# experiment_summary: viability loss in human hepatoma cells – cell-based, CellTiter-Glo luminescence, cherry-pick, set 2, cytotoxicity control, dose response (AID 743395)

Look over these answered cases.
C[C@H](CO)N1C[C@H](C)[C@@H](CN(C)Cc2ccc(Cl)c(Cl)c2)Oc2ccc(NC(=O)Nc3ccc(C(F)(F)F)cc3)cc2CC1=O
10.5 µM
O=C1CN(S(=O)(=O)Cc2ccccc2)C[C@@H]2[C@@H](c3ccc(C#Cc4cccc(F)c4)cc3)[C@@H](CO)N12
7.38 µM

# evaluate next
Entry under test: "COc1ccc(-c2cc(C(F)F)n3ncc(C(=O)N4CCc5ccccc54)c3n2)cc1" . Its AC35 was 9.81 µM

----------
# Tested on: HepG2 viability, CellTiter-Glo ATP luminescence, 72 h
# experiment_summary: viability loss in human hepatoma cells – cell-based, CellTiter-Glo luminescence, cherry-pick, set 2, cytotoxicity control, dose response (AID 743395)
List of AC35 values.

CC12CCC(CC1O)C2C(=O)O (stereo not drawn)
17.9 µM
Cc1ccc(COc2ccccc2-c2cc(C(=O)N/N=C/c3cccnc3)[nH]n2)cc1
14.7 µM
COc1ccc(C(=O)OCC(=O)N2C(C)CCCC2C)cc1S(=O)(=O)N1CCOCC1 (stereo not drawn)
18.7 µM
COc1cccc(S(=O)(=O)N(C)C[C@@H]2Oc3cc(C4=CCCC4)ccc3S(=O)(=O)N([C@H](C)CO)C[C@H]2C)c1
20.3 µM
COc1ccc(C(=O)NCCN(C)C)c2nc3ccccc3cc12
2.81 µM
O=C1c2ccccc2C(=O)c2c1cccc2N(CCO)CCO
16.7 µM
O=C(c1cccc(F)c1)N1CC[C@@H]2[C@H](CO)Nc3ccc(-c4ccccc4F)cc3[C@@H]21
18.1 µM
CN(Cc1ccccc1)S(=O)(=O)c1ccc(NC(=S)NC(=O)C2CCCC2)cc1
9.62 µM

# evaluate next
Entry under test: "COc1ccccc1N1CCN(C(=O)c2ccc(-c3ccc(Cl)cc3)o2)CC1" . Its AC35 was 3.02 µM

----------
# System: HepG2 viability, CellTiter-Glo ATP luminescence, 72 h
# experiment_summary: viability loss in human hepatoma cells – cell-based, CellTiter-Glo luminescence, cherry-pick, set 2, cytotoxicity control, dose response (AID 743395)
List of AC35 values.

Look over these answered cases.
O=C(N/N=C/c1cc(Br)cc(Cl)c1O)c1ccc2c(c1)OCO2
10.6 µM
CC(C)C[C@H]1CN([C@@H](CC(C)C)CN2CCC[C@@H]2CN2C(=S)NC[C@@H]2Cc2ccc(O)cc2)C(=S)N1CCc1ccccc1
19.2 µM
CC(C)Cc1ccc(-c2cc3nc(NCc4cccc(Cl)c4)ccn3n2)cc1
11.1 µM
CCN(c1cccc(C)c1)S(=O)(=O)c1ccc(-c2cc(C)no2)s1
8.73 µM

Entry under test: "CCc1c(C)nc2ncnn2c1NCCc1ccc(OC)cc1" . Its AC35 was 11.5 µM

Entry under test: O=C1CC(c2ccccc2)CC2=C1C=Nc1ccccc1N2 (stereo not drawn) . Its AC35 was 18.3 µM

Entry under test: "Cc1onc(-c2ccccc2Cl)c1C(=O)N1CCN(c2cccc(Cl)c2)CC1" . Its AC35 was 13.5 µM

Entry under test: "CC1(C)CCN2CCC(C)(C)c3c(O)ccc1c32" . Its AC35 was 6.54 µM
